Attribution: ChEMBL document CHEMBL3046921

IC50 data for UniProtKB P18031 follow.
Respond numerically; units are µM and should not be typed.

COC(=O)C1C(c2ccc(OC)cc2OC)=NOC1c1ccccc1 (configuration not stated) :: 165

Please find the next compound below.
Qu. Fill in: IC50 of COc1ccc(C2=NOC(c3ccccc3)C2)c(OC)c1 (configuration not stated) is ___
Ans. 69

----------
Biological target: Tyrosine-protein phosphatase non-receptor type 1 (Homo sapiens, UniProt P18031)
Sequence (P18031 whole entry): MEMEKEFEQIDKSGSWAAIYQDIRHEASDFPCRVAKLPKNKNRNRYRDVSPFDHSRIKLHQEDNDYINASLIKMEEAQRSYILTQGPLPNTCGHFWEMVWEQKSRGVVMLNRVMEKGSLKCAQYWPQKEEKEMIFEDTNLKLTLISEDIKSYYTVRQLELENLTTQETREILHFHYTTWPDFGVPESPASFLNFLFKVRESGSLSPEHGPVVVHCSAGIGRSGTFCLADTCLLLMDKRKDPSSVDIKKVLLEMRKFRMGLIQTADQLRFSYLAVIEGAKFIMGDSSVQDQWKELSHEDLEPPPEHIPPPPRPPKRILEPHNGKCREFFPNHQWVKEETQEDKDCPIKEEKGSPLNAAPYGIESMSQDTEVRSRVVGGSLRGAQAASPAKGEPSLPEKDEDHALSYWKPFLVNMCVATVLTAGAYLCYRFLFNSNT
Assay: Inhibition of PTP1B (unknown origin) using p-nitrophenylphosphate as substrate after 10 min
experimental-endpoint: pIC50
Worth noting: pIC50 values are minus log10 of concentrations stated in mol/L.

Qu. Fill in: pIC50 of SODIUM HYDROXYTRIOXIDOVANADIUM is ___
Ans. 4.06

----------
molecular target: Tyrosine-protein phosphatase non-receptor type 1 (Homo sapiens, UniProt P18031); assay: Inhibition of PTP1B (unknown origin) using p-nitrophenylphosphate as substrate after 10 min
experimental-endpoint: pKi
Worth noting: pKi values are minus log10 of concentrations stated in mol/L.

Qu. Fill in: pKi of SODIUM HYDROXYTRIOXIDOVANADIUM is ___
Ans. 4.17

----------
test system: Rattus norvegicus; assay: Antidiabetic activity in albino Rattus norvegicus Sprague-Dawley (rat) streptozotocin-induced diabetic model assessed as reduction of blood glucose level at 100 mg/kg, po after 5 hr; type: functional; design: scale not given: the % may be the effect or the level left
Could you please mark T for values of Activity below 20% and F for values at or above it?

For orientation, consider the following solved cases.
COC(=O)C1C(c2ccc(OC)cc2OC)=NOC1c1ccccc1 (configuration not stated) :: F
CC(=O)Oc1ccc(C2=NOC(c3ccccc3)C2)c(OC(C)=O)c1 (configuration not stated) :: F
COc1ccc(C2CC(c3ccc(OC)cc3OC)=NO2)cc1 (configuration not stated) :: T
COc1ccc(C2=NOC(c3ccccc3)C2)c(OC)c1 (configuration not stated) :: T

Qu. Strictly below 20%: is that where Activity of CN(C)C(=N)NC(=N)N [METFORMIN] sits?
Ans. F

Qu. Strictly below 20%: is that where Activity of COc1ccc(C2=NOC(n3ccnc3)C2)c(OC)c1 (configuration not stated) sits?
Ans. F
